Target: T1, recombinant BACE1 (BACE1 extracellular domain, R&D Systems Cat#931-AS) (UniProt P56817 22-457)
T1 construct: extracellular domain; also called BACE1 extracellular domain protein
T1 sequence (P56817 22-457): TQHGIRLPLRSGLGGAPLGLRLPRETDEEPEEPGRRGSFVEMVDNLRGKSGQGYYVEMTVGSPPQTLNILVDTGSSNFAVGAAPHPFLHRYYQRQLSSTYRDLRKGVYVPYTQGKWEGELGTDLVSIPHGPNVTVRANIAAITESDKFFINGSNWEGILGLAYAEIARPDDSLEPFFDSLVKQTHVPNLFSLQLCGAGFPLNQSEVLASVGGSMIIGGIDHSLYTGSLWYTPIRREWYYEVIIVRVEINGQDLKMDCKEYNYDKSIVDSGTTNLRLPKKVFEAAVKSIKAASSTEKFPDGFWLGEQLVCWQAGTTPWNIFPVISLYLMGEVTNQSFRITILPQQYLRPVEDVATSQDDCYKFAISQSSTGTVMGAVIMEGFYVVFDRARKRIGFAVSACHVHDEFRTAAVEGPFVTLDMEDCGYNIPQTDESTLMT
Assay: SPR Biacore
# kon per entry
ENDPOINT LABEL: kon (M⁻¹ s⁻¹)

- BINDER: "2H8.02 (antibody, human IgG1, V domains shown, human IgG1/kappa; also called 2H8_HCvar2 + 2H8_LC) VH: EVQLQQPGTELVRPGTSVKLSCKASGYTFTNYWMHWIKQRPGQGLEWIGMIDPSDTYTKFNQNFKGKATLTVDTSSSTAYMQLNSLTSEDSAVYYCARSGVAFPYWGQGTTVTVSS VL: DIVMTQSQKFMSKSVGDTVSVTCKASQDVGRNVAWYQQKSGQSPKSLIYSASHRYSGVPDRFTGSGSGTDFTLTISNVQSEDLADYFCQQYNSYPYTFGGGTRLEIK"
  UNIT INFO: "M⁻¹ s⁻¹"
  MEASURED: 20200
- BINDER: "2H8.04 (antibody, human IgG1, V domains shown, human IgG1/kappa; also called 2H8_HCvar4 + 2H8_LC) VH: EIQLQQSGTELVRPGTSVKLSCKASGYTFTNYWMHWVKQRPGQGLEWIGMIDPSAAYTNYNQNFKGKATLTVDTSSGTAYMQLSSLTSEDSAVYYCARSGVAFPYWGQGTTVTVSS VL: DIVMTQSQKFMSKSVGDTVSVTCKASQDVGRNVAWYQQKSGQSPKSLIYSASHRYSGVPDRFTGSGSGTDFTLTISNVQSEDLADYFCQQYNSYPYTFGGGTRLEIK"
  UNIT INFO: "M⁻¹ s⁻¹"
  MEASURED: 23300
